assay: Metabolic stability in presence of alpha-chymotrypsin (unknown origin) assessed as retention time by HPLC analysis; type: ADME; details: human
measure name: Retention_time (min)

[[record]]
chemical_structure = "CCCCc1cc(OC)c(OC)cc1O"
measured_result = 12.44

[[record]]
chemical_structure = "CCCCc1cc(OC)c(OCC(=O)OC)cc1O"
measured_result = 13.8

[[record]]
chemical_structure = "CCCC(=O)c1cc(OC)c(OC)cc1O"
measured_result = 13.83

[[record]]
chemical_structure = "COC(=O)COc1cc(O)c(C(C)=O)cc1OC"
measured_result = 8.68

[[record]]
chemical_structure = "COc1cc(O)c(C(C)=O)cc1OC"
measured_result = 8.58

[[record]]
chemical_structure = "CCCC(=O)c1cc(OC)c(OCC(=O)OC)cc1O"
measured_result = 13.18

[[record]]
chemical_structure = "CCc1cc(OC)c(OCC(=O)OC)cc1O"
measured_result = 7.78


* * *

system: Mus musculus; test: Hypolipidiemic activity in tyloxapol-induced ICR mouse hyperlipidemic model assessed as reduction in serum cholesterol level at 50 mg/kg, ip after 24 hrs; type: functional; parameters: scale not given: the % may be the effect or the level left; conditions: route intraperitoneal
Listed compounds paired with reported Activity
measure name: Activity (%)

[[record]]
chemical_structure = "CCCc1cc(OC)c(OCC(=O)OC)cc1O"
measure_name = "Activity"
measured_result = -80.21

[[record]]
chemical_structure = "CCC(=O)c1cc(OC)c(OCC(=O)OC)cc1O"
measure_name = "Activity"
measured_result = -66.87

[[record]]
chemical_structure = "CCCc1cc(OC)c(OC)cc1O"
measure_name = "Activity"
measured_result = -66.7

[[record]]
chemical_structure = "CCCC(=O)c1cc(OC)c(OC)cc1O"
measure_name = "Activity"
measured_result = -81.4

[[record]]
chemical_structure = "COc1cc(O)c(C(C)=O)cc1OC"
measure_name = "Activity"
measured_result = -80.09

[[record]]
chemical_structure = "CCC(=O)c1cc(OC)c(OC)cc1O"
measure_name = "Activity"
measured_result = -81.95

[[record]]
chemical_structure = "CCCCc1cc(OC)c(OC)cc1O"
measure_name = "Activity"
measured_result = -67.04

[[record]]
chemical_structure = "CCc1cc(OC)c(OC)cc1O"
measure_name = "Activity"
measured_result = -73.41

[[record]]
chemical_structure = "CCCC(=O)c1cc(OC)c(OCC(=O)OC)cc1O"
measure_name = "Activity"
measured_result = -49.26

[[record]]
chemical_structure = "CCCCc1cc(OC)c(OCC(=O)OC)cc1O"
measure_name = "Activity"
measured_result = -59.46

[[record]]
chemical_structure = "COC(=O)COc1cc(O)c(C(C)=O)cc1OC"
measure_name = "Activity"
measured_result = -72.71

[[record]]
chemical_structure = "CCc1cc(OC)c(OCC(=O)OC)cc1O"
measure_name = "Activity"
measured_result = -69.22


* * *

assay: Metabolic stability in presence of alpha-chymotrypsin (unknown origin) assessed as retention time by HPLC analysis; format: ADME; details: human
measure name: Retention time (min)

[[record]]
chemical_structure = "CCc1cc(OC)c(OC)cc1O"
measure_name = "Retention time"
measured_result = 6.94


* * *

experiment: Metabolic stability in presence of pepsin (unknown origin) assessed as retention time by HPLC analysis; format: ADME; conditions: human, isolated protein
# binarize Retention_time: threshold 10 min inclusive, high side Satisfied, low side Not satisfied

[[record]]
chemical_structure = "COC(=O)COc1cc(O)c(C(C)=O)cc1OC"
qualitative_label = "Not satisfied"

[[record]]
chemical_structure = "CCCC(=O)c1cc(OC)c(OCC(=O)OC)cc1O"
qualitative_label = "Satisfied"

[[record]]
chemical_structure = "CCc1cc(OC)c(OCC(=O)OC)cc1O"
qualitative_label = "Not satisfied"

[[record]]
chemical_structure = "CCCC(=O)c1cc(OC)c(OC)cc1O"
qualitative_label = "Satisfied"

[[record]]
chemical_structure = "CCc1cc(OC)c(OC)cc1O"
qualitative_label = "Not satisfied"

[[record]]
chemical_structure = "COc1cc(O)c(C(C)=O)cc1OC"
qualitative_label = "Not satisfied"

[[record]]
chemical_structure = "CCCCc1cc(OC)c(OC)cc1O"
qualitative_label = "Satisfied"

[[record]]
chemical_structure = "CCCCc1cc(OC)c(OCC(=O)OC)cc1O"
qualitative_label = "Satisfied"


These measurements were taken from ChEMBL document CHEMBL3351651.
